Biological target: Factor X, P00742
Sequence (P00742 whole entry, looked up): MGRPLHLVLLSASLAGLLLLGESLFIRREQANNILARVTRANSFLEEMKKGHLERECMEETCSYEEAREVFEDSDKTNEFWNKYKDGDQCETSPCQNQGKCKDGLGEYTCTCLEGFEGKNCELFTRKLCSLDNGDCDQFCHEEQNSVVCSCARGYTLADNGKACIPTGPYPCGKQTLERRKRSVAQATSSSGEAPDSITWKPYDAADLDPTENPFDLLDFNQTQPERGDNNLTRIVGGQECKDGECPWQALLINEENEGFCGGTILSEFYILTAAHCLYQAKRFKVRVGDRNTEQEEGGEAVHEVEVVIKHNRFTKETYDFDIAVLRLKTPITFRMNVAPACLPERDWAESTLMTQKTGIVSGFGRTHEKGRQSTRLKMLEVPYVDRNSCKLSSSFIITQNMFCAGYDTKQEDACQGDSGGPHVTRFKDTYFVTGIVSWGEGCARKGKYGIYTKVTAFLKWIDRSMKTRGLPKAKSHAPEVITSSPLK
Below: a set of entries, each annotated with reported kcat.
Note: unit s⁻¹ is implicit; provide only the numeric part.

# input protein: FIXa-Y155F/K247N/N249S/R318Y/R338E (protein) chain 1: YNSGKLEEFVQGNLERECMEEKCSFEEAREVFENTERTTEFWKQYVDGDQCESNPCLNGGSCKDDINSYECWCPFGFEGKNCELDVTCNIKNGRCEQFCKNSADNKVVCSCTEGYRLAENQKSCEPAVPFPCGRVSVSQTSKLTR chain 2: VVGGEDAKPGQFPWQVVLNGKVDAFCGGSIVNEKWIVTAAHCVETGVKITVVAGEHNIEETEHTEQNRSVIRIIPHHNYNAAINKYNHDIALLELDEPLVLNSYVTPICIADKEYTNIFLKFGSGYVSGWGRVFHKGYSALVLQYLRVPLVDRATCLESTKFTIYNNMFCAGFHEGGRDSCQGDSGGPHVTEVEGTSFLTGIISWGEECAMKGKYGIYTKVSRYVNWIKEKTKLT ; wanted: its kcat
# output 7.5

New cases:
# input Requested read-out: kcat. Entry: FIXa-Y155F/R318Y/R338E/N346D/R403E/E410N (protein) chain 1: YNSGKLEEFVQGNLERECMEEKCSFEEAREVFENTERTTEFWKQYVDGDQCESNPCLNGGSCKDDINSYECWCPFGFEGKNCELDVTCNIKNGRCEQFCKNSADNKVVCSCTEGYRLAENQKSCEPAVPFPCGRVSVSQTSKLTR chain 2: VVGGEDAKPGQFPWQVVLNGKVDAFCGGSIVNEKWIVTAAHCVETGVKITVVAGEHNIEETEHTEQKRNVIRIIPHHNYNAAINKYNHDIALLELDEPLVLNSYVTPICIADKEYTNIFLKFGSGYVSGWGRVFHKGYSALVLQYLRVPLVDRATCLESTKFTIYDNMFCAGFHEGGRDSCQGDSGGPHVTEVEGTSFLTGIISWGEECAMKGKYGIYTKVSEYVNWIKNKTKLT
# output 6.4
